tested on: K4 kissing-loop RNA reporter; assay: apparent KD of K4 kissing-loop reporter; higher = weaker reporter binding; details: Eterna round: R107; input ligand: theophylline 20 uM;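 further: bound reporter read as fluorescence of individual clusters on recovered sequencing chips by microscopy, with normalized cluster intensities fitted with a binding model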
Yes means recorded apparent KD of K4 kissing-loop reporter is 0.2 µM or above; No means it is below 0.2 µM.

Record excerpt, results attached:
q: Is reported apparent KD of K4 kissing-loop reporter greater than or equal to 0.2 µM here: UGUACCGAGUCAGGAUAUGGCGUCGAAAGACGAAUCUUAGUGAUGUUAGGGAUCUGCGAAAGCAGUUCAGAAGGGACUUGGUACU [FmnBS 26 U37+U67]
a: Yes

q: Is reported apparent KD of K4 kissing-loop reporter greater than or equal to 0.2 µM here: CGGCGCGGCGCGGCCGCCACUGCGCCUGGGCGCUCGCCGAGUGAUGUUCGUCGGCGGUCGGGUGGCAGGACCGGGUGCCGGCCCG [BDazzled - #20 SS Tryptophan B]
a: No

***
q: Is reported apparent KD of K4 kissing-loop reporter greater than or equal to 0.2 µM here: UGAUACCAGACUGAUACCAGCUAGUGAUGUUAGCUGAAAUCAGGGUCAAAGACCCUGUCUGGCCCUUGGCAGCAGUCUGGUAUCU [TheoBX 18 #SwitchBubble #StaticStem]
a: No

q: Is reported apparent KD of K4 kissing-loop reporter greater than or equal to 0.2 µM here: GUCCCAGUGAUGUUGGUAGGCGAGCGGGAUACCAGCCAAGACUCAGGCCCUUGGCAGCCCACAUAUCCCACGUAGGGAUUAGCUC [Same State - Theophylline A (Freestyle 19)]
a: Yes

q: Is reported apparent KD of K4 kissing-loop reporter greater than or equal to 0.2 µM here: "CGAUGGAUGGCAGGAUAUAGACAUUGAGUGAUGUUCGAUGAUUAUCCAUAUUCCCGUCACCUAUGACUAGAAGGGCCAUCCAUCG"
a: Yes

====

tested on: MS2 coat protein; experiment: apparent KD of MS2 coat protein; higher = weaker reporter binding; conditions: Eterna round: R101; input ligand: none
Measured apparent KD of MS2 coat protein, listed per entry.
Write the value in nM as a bare number.

Here's what some known entries look like.
According to the records, this sequence AAAUAAACCUUAGGAUAUGACUCCGAAACGGAGUCAGAAGGGAGGAUCACCCUCUUCAGCUCAGCGUCGAAAGACGCUGAGCAA [#SharedSequence ExNG1 - 21] (puzzle (switch architecture): Exclusion NG 1) displays apparent KD of MS2 coat protein of 72.9

According to the records, this sequence GGACGUCACAUUAACAUGAGGAUCACCCAUGUCAAAAGACAUGAGGAUAUGGAUCCUAAUUGGAUCCAGAAGGCAUGGACGUCC [#HiddenHairpinInALoop - Fiskers NG3ss - 39] (puzzle (switch architecture): Same State NG 3) displays apparent KD of MS2 coat protein of 236

According to the records, this sequence CCUGCACUUCAAGGAUAUCCAGUCGAAACGACUGGAGAAGGUGAGGAUCACCCACCUAGCCUGACGAAAGUCAGGCAUGCAGGA [#SharedSequence - ExNG1-3] (puzzle (switch architecture): Exclusion NG 1) displays apparent KD of MS2 coat protein of 8.62

Now turn to the next sequence.
According to the records, this sequence AAAUAAAUUGAAGGAUAUCAGGGUGCACCUCAGUAAAACUGAGGUGCACCCUGAGAAGGUCGAGGAUCACCCGACCUAAAUAAA [#SharedSequence SLExNG1: 4-2] (puzzle (switch architecture): Small Loop Exclusion NG 1) displays apparent KD of MS2 coat protein of 7.63
